All values here come from paper PMC6681824.

- Test system: pol η (Homo sapiens, UniProt Q9Y253)
- Sequence (Q9Y253 whole entry): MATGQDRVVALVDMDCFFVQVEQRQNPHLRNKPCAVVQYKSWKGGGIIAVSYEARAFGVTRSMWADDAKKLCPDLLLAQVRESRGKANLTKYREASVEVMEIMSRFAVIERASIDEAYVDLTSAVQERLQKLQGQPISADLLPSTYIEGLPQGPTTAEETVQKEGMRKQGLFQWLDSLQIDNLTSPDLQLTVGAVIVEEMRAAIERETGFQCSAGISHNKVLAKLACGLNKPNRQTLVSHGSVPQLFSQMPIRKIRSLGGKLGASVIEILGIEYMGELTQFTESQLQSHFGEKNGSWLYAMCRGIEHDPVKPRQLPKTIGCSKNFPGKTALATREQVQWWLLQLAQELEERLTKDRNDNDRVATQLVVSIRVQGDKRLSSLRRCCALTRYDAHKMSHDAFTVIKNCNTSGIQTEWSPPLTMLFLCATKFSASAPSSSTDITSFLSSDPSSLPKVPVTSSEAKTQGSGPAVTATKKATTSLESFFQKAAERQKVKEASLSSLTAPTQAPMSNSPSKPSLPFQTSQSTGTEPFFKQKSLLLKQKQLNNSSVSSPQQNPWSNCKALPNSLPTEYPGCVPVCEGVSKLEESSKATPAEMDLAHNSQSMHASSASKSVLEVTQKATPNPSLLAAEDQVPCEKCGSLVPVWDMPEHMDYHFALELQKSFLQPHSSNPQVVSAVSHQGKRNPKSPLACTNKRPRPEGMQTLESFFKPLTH
- Format: biochemical
- Reported conditions: read-out: apparent Kd; A opposite T (correct), B sequence
Listed below: Kd values for each entry.
Please make sure the unit comes right after the number.

- Nc1ncnc2c1ncn2[C@H]1CC(O)[C@@H](COP(=O)(O)OP(=O)(O)C(F)P(=O)(O)O)O1 (some centres unmarked) [dATP-CHF]: 190 µM

State the recorded Kd for this entry: Nc1ncnc2c1ncn2[C@H]1C[C@H](O)[C@@H](COP(=O)(O)OP(=O)(O)OP(=O)(O)O)O1 [dATP] 9.4 µM

* * *

pKd values by entry
- Test system: pol η (Homo sapiens, UniProt Q9Y253)
- Type: biochemical
- Reported conditions: read-out: apparent Kd; A opposite T (correct), W sequence
Conceptually, pKd converts a concentration in mol/L into minus its log10.

* Nc1ncnc2c1ncn2[C@H]1C[C@H](O)[C@@H](COP(=O)(O)OP(=O)(O)OP(=O)(O)O)O1 [dATP] | 5.15

Hi! What's the reported pKd for Nc1ncnc2c1ncn2[C@H]1CC(O)[C@@H](COP(=O)(O)OP(=O)(O)C(F)P(=O)(O)O)O1 (some centres unmarked) [dATP-CHF] on pol η (Homo sapiens, UniProt Q9Y253)? 3.85
